Target: UniProt:P34972
Sequence (P34972 whole entry): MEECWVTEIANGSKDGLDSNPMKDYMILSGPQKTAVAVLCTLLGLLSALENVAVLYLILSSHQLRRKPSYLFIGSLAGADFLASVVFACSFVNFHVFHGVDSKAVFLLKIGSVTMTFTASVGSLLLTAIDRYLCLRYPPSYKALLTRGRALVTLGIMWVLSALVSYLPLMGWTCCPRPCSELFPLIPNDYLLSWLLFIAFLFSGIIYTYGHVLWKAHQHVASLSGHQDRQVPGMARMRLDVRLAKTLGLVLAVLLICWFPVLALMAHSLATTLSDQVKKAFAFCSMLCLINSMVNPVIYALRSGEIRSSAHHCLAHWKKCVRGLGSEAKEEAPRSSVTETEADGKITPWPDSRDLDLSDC
Test: Displacement of [3H] CP-55,940 from human CB2 receptor expressed in HEK cells at 10 uM after 3 hrs by scintillation counting
Type: cell-based
Conditions: HEK293
metric name: inhibition
Could you write the number and then its unit?

# compound structure, inhibition
rows = [
    ("Cc1c(C(=O)NCCCCNC(=O)c2cccc(C(=O)NCCCCNC(=O)c3nn(-c4ccc(Cl)cc4Cl)c(-c4ccc(Cl)cc4)c3C)c2)nn(-c2ccc(Cl)cc2Cl)c1-c1ccc(Cl)cc1", "0%"),
    ("Cc1c(C(=O)NCCCCCCCNCCCCCCCNC(=O)c2nn(-c3ccc(Cl)cc3Cl)c(-c3ccc(Cl)cc3)c2C)nn(-c2ccc(Cl)cc2Cl)c1-c1ccc(Cl)cc1", "34.4%"),
]

Identify measured inhibition associated with Cc1c(C(=O)NN2CCCCC2)nn(-c2ccc(Cl)cc2Cl)c1-c1ccc(Cl)cc1 9%
